Kindly supply the reported IC50 values for the records listed here.
# subjectOfTest: human recombinant H-PGDS (Homo sapiens, UniProt O60760)
# Sequence (O60760 whole entry): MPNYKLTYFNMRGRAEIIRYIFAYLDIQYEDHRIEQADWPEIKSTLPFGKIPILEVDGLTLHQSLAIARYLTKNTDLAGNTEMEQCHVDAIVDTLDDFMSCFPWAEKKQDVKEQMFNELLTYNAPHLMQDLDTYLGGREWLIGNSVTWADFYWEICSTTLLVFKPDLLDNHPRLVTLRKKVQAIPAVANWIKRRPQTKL
# testName: Fluorescence intensity h-PGDS TBA enzyme assay
# Type: biochemical
# runConditions: Examples up to 622 (and 3a, 3b)
Write the number in nM without appending the unit.

Look up and state reported IC50 for Cc1nc(-c2ccccc2)ncc1CN1CCC(NC(=O)c2ccc(-c3cccc(F)c3)nc2)CC1 6.66

Look up and state reported IC50 for O=C(NC1CCN(c2ncc(Br)cn2)CC1)c1ccc(-c2cccc(F)c2)nc1 4.01

Look up and state reported IC50 for Cc1nn(C)c(C)c1NC(=O)c1ccc(N2CCC(NC(=O)c3ccc(-c4cccc(F)c4)nc3)CC2)nn1 0.365

Look up and state reported IC50 for O=C(NC1CCN(Cc2ccc(-n3ccnn3)cc2)CC1)c1ccc(-c2cccc(F)c2)nc1 0.285

Look up and state reported IC50 for CCc1ncc(CN2CCC(NC(=O)c3ccc(-c4cccc(F)c4)nc3)CC2)[nH]1 5.98

Look up and state reported IC50 for CCOC(=O)N1CCC(NC(=O)c2ccc(-c3cccc(OC)c3)nc2)CC1 3.94
